Catalogue of compounds with associated pIC50
# TARGET_UNDER_TEST: human MC3 receptor (Homo sapiens, UniProt P41968)
# Sequence (P41968 whole entry): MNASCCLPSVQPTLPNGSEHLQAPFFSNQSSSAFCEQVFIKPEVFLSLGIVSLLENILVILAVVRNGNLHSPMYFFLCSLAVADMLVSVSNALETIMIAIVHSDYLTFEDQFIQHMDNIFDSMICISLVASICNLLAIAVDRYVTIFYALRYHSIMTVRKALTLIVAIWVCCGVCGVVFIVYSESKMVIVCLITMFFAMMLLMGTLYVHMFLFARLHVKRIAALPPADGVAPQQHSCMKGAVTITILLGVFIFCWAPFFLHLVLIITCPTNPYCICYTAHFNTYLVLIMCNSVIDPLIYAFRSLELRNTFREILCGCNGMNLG
# PROTOCOL: Competitive binding assay, human MC3 receptor
# TEST_CONDITIONS: hMC-3R (binding data), CHO cell membranes expressing human MC3 receptor; 200 pM [125I]-NDP-α-MSH; three independent experiments
Numbered stars: 1 amine (or outer) side, 2 acyl side, 3 side chain; on linkers, the order of the positions; unused ones are H or OH. Bridge positions count the residues as written; N and C are the ends. Square brackets hold non-standard residues; d marks the D form. Peptide text beside a SMILES is read from it. dPhe(4-tBu) = CC(C)(C)c1ccc(C[C@@H](N)C(=O)O)cc1; dPhe(4-Cl) = N[C@H](Cc1ccc(Cl)cc1)C(=O)O; Suc = O=C(CCC(=O)[*:2])[*:1]
// scale note: pIC50 = -log10(conc_M); give the bare number

Previously resolved entries follow.
N=C(N)NCCC[C@@H]1NC(=O)[C@@H](Cc2ccc(Cl)cc2)NC(=O)CCC(=O)NCCCC[C@@H](C(N)=O)NC(=O)[C@H](Cc2c[nH]c3ccccc23)NC1=O [Example 17] ([dPhe(4-Cl)]RWK-NH2; linker N-4 via Suc)	6.24
CC(C)(C)c1ccc(C[C@H]2NC(=O)CCC(=O)NCCCC[C@@H](C(N)=O)NC(=O)[C@H](Cc3c[nH]c4ccccc34)NC(=O)[C@H](CCCNC(=N)N)NC2=O)cc1 [Example 14] ([dPhe(4-tBu)]RWK-NH2; linker N-4 via Suc)	5.82

Below: the item to evaluate.
Sample N=C(N)NCCC[C@@H]1NC(=O)[C@@H](Cc2ccc3ccccc3c2)NC(=O)C2CC2C(=O)NCCCC[C@@H](C(N)=O)NC(=O)[C@H](Cc2c[nH]c3ccccc23)NC1=O (single isomer, unassigned) [11 b] ; pIC50 observed: 6.57

* * *

# TARGET_UNDER_TEST: human MC4 receptor (Homo sapiens)
# Construct: expressed in transfected cells; host or cells: Chinese hamster ovary (CHO) cells
# Sequence (P32245 whole entry): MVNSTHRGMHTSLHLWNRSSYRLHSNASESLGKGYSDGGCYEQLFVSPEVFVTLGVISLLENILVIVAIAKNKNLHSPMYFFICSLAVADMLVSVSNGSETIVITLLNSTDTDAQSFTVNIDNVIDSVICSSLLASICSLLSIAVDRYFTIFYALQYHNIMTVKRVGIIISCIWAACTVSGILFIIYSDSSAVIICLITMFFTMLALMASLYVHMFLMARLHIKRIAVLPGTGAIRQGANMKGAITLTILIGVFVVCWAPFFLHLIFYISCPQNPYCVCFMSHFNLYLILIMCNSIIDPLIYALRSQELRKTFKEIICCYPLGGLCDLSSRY
# PROTOCOL: Competitive binding assay, human MC4 receptor
# TEST_CONDITIONS: selectivity ratio of hMC-5R to hMC-4R binding values
Numbered stars: 1 amine (or outer) side, 2 acyl side, 3 side chain; on linkers, the order of the positions; unused ones are H or OH. Bridge positions count the residues as written; N and C are the ends. Square brackets hold non-standard residues; d marks the D form. Peptide text beside a SMILES is read from it. d2Nal = N[C@H](Cc1ccc2ccccc2c1)C(=O)O; Suc = O=C(CCC(=O)[*:2])[*:1]
MEASURED_QUANTITY: 5:4
Give the figure only, with no unit attached.

Previously resolved entries follow.
N=C(N)NCCC[C@@H]1NC(=O)[C@@H](Cc2ccc3ccccc3c2)NC(=O)[C@H](Cc2c[nH]cn2)NC(=O)[C@@H](N)CC(=O)NCCCC[C@@H](C(N)=O)NC(=O)[C@H](Cc2c[nH]c3ccccc23)NC1=O	14
N=C(N)NCCC[C@@H]1NC(=O)[C@@H](Cc2ccc3ccccc3c2)NC(=O)[C@H](Cc2c[nH]cn2)NC(=O)CCC(=O)NCCCC[C@@H](C(N)=O)NC(=O)[C@H](Cc2c[nH]c3ccccc23)NC1=O [Example 7] (H[d2Nal]RWK-NH2; linker N-5 via Suc)	200

Readout 5:4 for N=C(N)NCCC[C@@H]1NC(=O)[C@@H](Cc2ccc3ccccc3c2)NC(=O)C2CC2C(=O)NCCCC[C@@H](C(N)=O)NC(=O)[C@H](Cc2c[nH]c3ccccc23)NC1=O (single isomer, unassigned) [11 b] , test system human MC4 receptor (Homo sapiens), was 337

* * *

# TARGET_UNDER_TEST: human MC4 receptor (Homo sapiens)
# Construct: expressed in transfected cells; host or cells: Chinese hamster ovary (CHO) cells
# PROTOCOL: Competitive binding assay, human MC4 receptor
# TEST_CONDITIONS: selectivity ratio of hMC-5R to hMC-4R binding values
Numbered stars: 1 amine (or outer) side, 2 acyl side, 3 side chain; on linkers, the order of the positions; unused ones are H or OH. Bridge positions count the residues as written; N and C are the ends. Square brackets hold non-standard residues; d marks the D form. Peptide text beside a SMILES is read from it. d2Nal = N[C@H](Cc1ccc2ccccc2c1)C(=O)O; Suc = O=C(CCC(=O)[*:2])[*:1]; Dap = NC[C@H](N)C(=O)O
MEASURED_QUANTITY: 5:4
Give the figure only, with no unit attached.

NCCCC[C@@H]1NC(=O)[C@@H](Cc2ccc3ccccc3c2)NC(=O)CCC(=O)NCCCC[C@@H](C(N)=O)NC(=O)[C@H](Cc2c[nH]c3ccccc23)NC1=O [Example 20] ([d2Nal]KWK-NH2; linker N-4 via Suc)	48

Below: the item to evaluate.
Sample N=C(N)NCCC[C@@H]1NC(=O)[C@@H](Cc2ccc3ccccc3c2)NC(=O)[C@H](Cc2c[nH]cn2)NC(=O)CCC(=O)NC[C@@H](C(N)=O)NC(=O)[C@H](Cc2c[nH]c3ccccc23)NC1=O [Example 8] (H[d2Nal]RW[Dap]-NH2; linker N-5 via Suc) ; 5:4 observed: 355
